- TARGET: Fibroblast growth factor 10 (Homo sapiens) (UniProt O15520)
- Sequence (O15520 whole entry, looked up): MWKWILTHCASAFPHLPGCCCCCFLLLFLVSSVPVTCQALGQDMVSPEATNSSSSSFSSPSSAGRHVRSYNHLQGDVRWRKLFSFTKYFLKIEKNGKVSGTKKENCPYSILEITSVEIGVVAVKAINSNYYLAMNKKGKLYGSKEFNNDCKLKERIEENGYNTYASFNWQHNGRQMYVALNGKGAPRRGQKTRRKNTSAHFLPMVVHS
- PROTOCOL: FGF10 binders on small-molecule microarrays, primary screen, biochemical, small-molecule microarray, 635 nm fluorescence (AID 1102)
- EXPERIMENTAL_SETUP: FGF10 binding, fluorescence 635 nm, higher = more signal
# label = bin(measured composite z-score), where bins are bucket A = under -0.5, bucket B = from -0.5 up to 0.2, bucket C = 0.2 and over

Past entries and their recorded results:
Just checking, what class would you give CCCCCCCCCCC(O)C1C=CC2C(=O)N(C)C(=O)C2N1Nc1cc(OC)c(OC)c(OC)c1 (centres undefined) here?
bucket B

Bin? COc1cccc(/C=C(\C#N)C(=O)Nc2c(C)n(C)n(-c3ccccc3)c2=O)c1
bucket B

***
Hi, small favor: classify C[C@@]12COC[C@]13C=C(Br)[C@H](C2)[C@@]1(CO1)C3=O by its composite z-score when you get a moment.
bucket A

Into which bin does this compound go? C=C[C@@H](C)[C@H](O)c1ccc(OCCO)cc1
bucket A
